# System: MCF7 breast
# METHOD: NCI-60 one-dose screen, 48 h
# MEASUREMENT_CONDITIONS: 10 µM unless noted
About 83,000 compounds went through this panel and 20% of them were active in at least one assay; those are over-represented in the sample as a whole. The source made the active and inactive calls. The calls were made as follows: active = growth percent below 10; inactive = the rest.
Answer with one of the outcomes given here: True for active, False for inactive

Solved entries:
C=CCSc1ccc2c(c1)C(N1CCNCC1)=Nc1ccccc1O2 ... False
Nc1cc(-c2c[nH]c3ccc(Cl)cc23)nc2cc(-c3c[nH]c4ccc(Cl)cc34)nn12 ... False
CC1=C(C)C(=O)C(Nc2ccccc2)=C(Cl)C1=O ... False
OC1CCN(CCCOc2c3ccccc3nc3c2oc2ccccc23)CC1 ... True
CCCC(=O)NC(c1cccc(N(C)C)c1)c1cc(C)c2cccnc2c1O (stereo not given) ... False

[ask] Recorded test call requested for COc1cccc(OC)c1-c1nnn(C)c1C(=S)N1CCN(c2ccc([N+](=O)[O-])cc2Cl)CC1
[reply] False

[ask] Recorded test call requested for Nc1cc(-c2c[nH]c3ccc(F)cc23)nc2cc(-c3c[nH]c4ccc(F)cc34)nn12
[reply] False

[ask] Recorded test call requested for C#Cc1nc(C2=C(C)C(O)/C(=N/O)C2)cs1 (stereo not given)
[reply] False

[ask] Recorded test call requested for COc1ccc(C(=O)/C=C/c2ccc(OCc3ccc(Cl)cc3)c(OC)c2)cc1OC
[reply] False

[ask] Recorded test call requested for CNC(=O)c1cc(-c2ccc(NC(=O)Nc3ccc(N4CCOCC4)c(C(F)(F)F)c3)cc2)nc2cccnc12
[reply] False

###

# Test system: MALME-3M melanoma
# METHOD: NCI-60 one-dose screen, 48 h
# MEASUREMENT_CONDITIONS: 10 µM unless noted
The panel holds about 83,000 compounds, 20% with a hit somewhere; the sample as a whole holds those more often. Active and inactive are the calls of the source. Rule for the calls: active = growth percent below 10; inactive = the rest.
Answer with one of the outcomes given here: 1 (yes) (active), 0 (no) (inactive)

O=c1[nH]c2ccccc2cc1CSc1ccccc1Nc1nccc(-c2ccc(C(F)(F)F)cc2)n1 ... 0 (no)

[ask] Recorded test call requested for CC(=O)c1ccc(Nc2nc(SC(C)C)nc(-c3ccccc3)c2C#N)cc1
[reply] 0 (no)

[ask] Recorded test call requested for COc1cc(/C=C/C(=O)c2cc(OC)c(OC)c(OC)c2)ccc1Oc1nc(NCCO)nc(N2CCOCC2)n1
[reply] 0 (no)

[ask] Recorded test call requested for C#Cc1nc(C2=C(C)C(OC(C)=O)/C(=N/OC(C)=O)C2)cs1 (stereo not given)
[reply] 1 (yes)

[ask] Recorded test call requested for [Cl][Ru].c1ccc(-c2cccc(-c3ccccn3)n2)nc1.c1ccc(-c2ccnc3c2ccc2c(-c4ccccc4)ccnc23)cc1
[reply] 1 (yes)

[ask] Recorded test call requested for C=CCSc1ccc2c(c1)C(N1CCNCC1)=Nc1ccccc1O2
[reply] 0 (no)

[ask] Recorded test call requested for COc1cc(N=Cc2sc(Nc3nccs3)nc2O)cc(OC)c1OC
[reply] 0 (no)

[ask] Recorded test call requested for Nc1nc(N)c2c(n1)NC(c1ccc(C(F)(F)F)cc1)CC(c1ccc(Nc3nc(NCCO)nc(Nc4ccc(Cl)cc4)n3)cc1)=N2 (stereo not given)
[reply] 1 (yes)

[ask] Recorded test call requested for COc1ccc(/C=C2\SC(=Nc3cc(C)[nH]n3)NC2=O)cc1
[reply] 0 (no)

###

# Test system: SK-MEL-28 melanoma
# METHOD: NCI-60 one-dose screen, 48 h
# MEASUREMENT_CONDITIONS: 10 µM unless noted
The panel holds about 83,000 compounds, 20% with a hit somewhere; the sample as a whole holds those more often. Activity calls are given as the source filed them. Rule for the calls: active = growth percent below 10; inactive = the rest.
Answer with one of the outcomes given here: active, inactive

Solved entries:
O=C(CCCN1C(=O)/C(=C/c2ccccc2F)SC1=S)N1CCOCC1 ... inactive
Cc1ccc(CNS(=O)(=O)/N=C2\NC(=O)NC2=C(Cl)Cl)cc1 ... inactive
Nc1ncc(-c2ccc3ncnc(N4CCc5cc(F)c(Cl)cc54)c3c2)cc1CO ... active
O=C1/C(=C/C2=Cc3ccccc3OC2)SC(=S)N1c1ccc(F)cc1 ... inactive
CCN1CCN(/C(=N\c2sc(-c3ccccc3)nc2-c2ccccc2)c2ccccc2)CC1 ... inactive
COc1cc(/C=C/C(=O)c2ccc(C)cc2)ccc1Oc1nc(NCCO)nc(N2CCOCC2)n1 ... inactive
COc1cccc(COc2ccc(/C=C3/C(=O)Nc4cc(Cl)ccc43)cc2)c1 ... inactive
O=C(Nc1nc2ccc(O)cc2s1)c1cccc(C(F)(F)F)c1 ... inactive

[ask] Recorded test call requested for C=CCn1c(SCC(=O)c2ccc(Br)cc2)nnc1-c1c[nH]c2ccccc12
[reply] inactive

[ask] Recorded test call requested for Cc1c(Nc2nnc(SCC(=O)Nc3sc4c(c3C#N)CCCC4)s2)c(=O)n(-c2ccccc2)n1C
[reply] inactive

[ask] Recorded test call requested for NS(=O)(=O)c1ccc(Nc2nc(SCC(=O)c3ccc(Cl)cc3)nc3ccccc23)cc1
[reply] inactive

[ask] Recorded test call requested for Cc1c(NC(=O)CSc2nc3sc4c(c3c(=O)n2-c2ccc(Cl)cc2)CCCC4)c(=O)n(-c2ccccc2)n1C
[reply] inactive

[ask] Recorded test call requested for Clc1ccc2c(NCCCN3CCOCC3)c3oc4ccc(Cl)cc4c3nc2c1
[reply] inactive

[ask] Recorded test call requested for COc1ccc(-c2csc(N/N=C/c3c(-c4ccc(S(C)(=O)=O)cc4)nc4ccccn34)n2)cc1
[reply] inactive

[ask] Recorded test call requested for C#C[C@]1(O)CC[C@H]2[C@@H]3CC=C4c5sc(Nc6ccc(Cl)cn6)nc5CC[C@]4(C)[C@H]3CC[C@@]21C
[reply] active

[ask] Recorded test call requested for CCOC(=O)c1c(Nc2ccccc2)nn2c(-c3ccco3)c(C#N)cnc12
[reply] inactive

[ask] Recorded test call requested for Cn1c(SCC(=O)Nc2ccc(-c3nc4ccc([N+](=O)[O-])cc4[nH]3)cc2)nc2ccccc2c1=O
[reply] inactive

[ask] Recorded test call requested for NC(=O)c1cc(-c2ccc3ncnc(N4CCc5cc(F)c(Cl)cc54)c3c2)cnc1N
[reply] inactive

[ask] Recorded test call requested for [Cl][Ru].c1ccc(-c2cc(-c3ccccn3)nc(-c3ccccn3)c2)cc1.c1ccc(-c2ccnc3c2ccc2c(-c4ccccc4)ccnc23)cc1
[reply] active

[ask] Recorded test call requested for Clc1ccc2c(OCCCN3CCOCC3)c3oc4ccccc4c3nc2c1
[reply] inactive

[ask] Recorded test call requested for O=C(CN1CCOCC1)NNc1ncnc2ccccc12
[reply] inactive

[ask] Recorded test call requested for NS(=O)(=O)c1cccc(Nc2nc(SCC(=O)c3ccc(Cl)cc3)nc3ccccc23)c1
[reply] inactive

###

# Test system: CCRF-CEM leukemia
# METHOD: NCI-60 one-dose screen, 48 h (100 = growth as untreated, 0 = no growth, -100 = all killed)
# MEASUREMENT_CONDITIONS: 10 µM unless noted
The panel holds about 83,000 compounds, 20% with a hit somewhere; the sample as a whole holds those more often.
Tick yes if growth is 90% or greater. Tick no if growth is less than 90%.

COc1ccc(/C=C2\SC(=Nc3cc(C)[nH]n3)NC2=O)cc1 ... no
C=C1CC[C@H]2[C@@](C)(CCC3OC(c4ccc(OCc5cn(C6CC(OC(C)=O)C(OC(C)=O)C(COC(C)=O)O6)nn5)cc4)OC[C@]32C)[C@@H]1/C=C/C1=CCOC1=O (stereo not given in full) ... no
O=C(Nc1nc2ccc(O)cc2s1)c1cccc(C(F)(F)F)c1 ... no
Cc1nc(-c2cc3ccccc3oc2=O)ccc1C(=O)/C=C/c1ccc(Cl)c(Cl)c1 ... yes

Alright, here's another molecule for you.
[ask] // inclusive: growth at least 90%? input: N=C1CC(=O)NN1C(=O)CSc1nc2sc3c(c2c(=O)n1-c1ccc(Cl)cc1)CCCC3
[reply] yes

###

# Test system: SN12C renal
# METHOD: NCI-60 one-dose screen, 48 h
# MEASUREMENT_CONDITIONS: 10 µM unless noted
About 83,000 compounds went through this panel and 20% of them were active in at least one assay; those are over-represented in the sample as a whole. The source made the active and inactive calls. Rule for the calls: active = growth percent below 10; inactive = the rest.
Answer with one of the outcomes given here: active, inactive

[ask] Recorded test call requested for OC1CCN(CCCOc2c3ccccc3nc3c2oc2ccccc23)CC1
[reply] active

[ask] Recorded test call requested for C#C[C@]1(O)CC[C@H]2[C@@H]3CC=C4c5sc(Nc6ccc(Cl)cn6)nc5CC[C@]4(C)[C@H]3CC[C@@]21C
[reply] inactive

[ask] Recorded test call requested for COC(=O)C(C)NS(=O)(=O)/N=C1\NC(=O)NC1=C(Cl)Cl (centres undefined)
[reply] inactive

[ask] Recorded test call requested for COc1cc(/C=C/C(=O)c2cc(OC)c(OC)c(OC)c2)ccc1OCc1ccc(F)cc1
[reply] inactive

[ask] Recorded test call requested for Nc1cc(-c2c[nH]c3ccccc23)nc2cc(-c3c[nH]c4ccccc34)nn12
[reply] inactive

[ask] Recorded test call requested for Fc1ccc(-c2nc(C(Cl)Cl)nc3cc(-c4ccccc4)nn23)cc1
[reply] inactive
